Data provenance: PubChem BioAssay (NCI)

system: HL-60(TB) leukemia; assay: NCI tumour cell line growth inhibition, 48 h; in the data active means GI50 below about 0.43 µM; inactive means the rest
// one of True = active, False = inactive, no free text

Prompt: Called result for OCc1ccc(N2CCCC2c2ccccc2)cc1Cl (stereo not given)
Completion: False

Prompt: Called result for N#Cc1c(N2CCOCC2)nc(=S)[nH]c1-c1ccco1
Completion: False

Prompt: Called result for CC(=O)OC12C=C(C)C(C(C)C1)C1C(=O)N(CCN3CCOCC3)C(=O)C12 (stereo not given)
Completion: False

Prompt: Called result for O=[N+]([O-])c1ccc(C=Cc2ccccc2)cc1.[C-]#[O+].[C-]#[O+].[C-]#[O+].[Cr]
Completion: False

Prompt: Called result for O=C(O)CN1CCN(CC(=O)O)CC(=O)[O][Hg][O]C(=O)C1
Completion: False

Prompt: Called result for CNCCCNCCCCNCCCN1C(=O)c2ccc3c4c(ccc(c24)C1=O)C(=O)N(CCCNCc1ccccc1OC)C3=O
Completion: False

Prompt: Called result for O=S(=O)(Nc1cc(Sc2cccc3cccnc23)c(O)c2ccccc12)c1ccc(F)cc1
Completion: False

Prompt: Called result for CCCCCCCCCCCCCCCCCC1=NCCN1CCOC1=C(Cl)C(=O)c2ccccc2C1=O
Completion: False

Prompt: Called result for COc1ccc2cc1Oc1ccc(cc1)C[C@H]1c3c(cc4c(c3Oc3cc5c(cc3OC)CCN(C)[C@@H]5C2)OCO4)CCN1C
Completion: False

Prompt: Called result for O=C1OCC2=C1C(c1ccccc1)c1cc3c(cc1N2)OCO3 (stereo not given)
Completion: True

====

system: KM12 colon; test: NCI tumour cell line growth inhibition, 48 h
Readout Type: TGI

Prompt: Given CCn1c2ccccc2c2ccc3c(c21)C(=O)C=CC3=O , state its recorded TGI.
Completion: 27.4 µM

Prompt: Given O=C(O)CN1CCN(CC(=O)O)CC(=O)[O][Hg][O]C(=O)C1 , state its recorded TGI.
Completion: > 100 µM

Prompt: Given COC1=CC(=O)C2=C(C1=O)[C@H]1CC[C@]3(C)[C@@H](O)CC[C@H]3[C@@H]1CC2 , state its recorded TGI.
Completion: 32.3 µM

Prompt: Given O=C(CCCN1CCC2(CC1)CC(c1ccccc1)OC2=O)c1ccc(F)cc1 (configuration not stated) , state its recorded TGI.
Completion: 97.1 µM

Prompt: Given Nc1ccn(C2C=C(CO)C(O)C2O)c(=O)c1 (configuration not stated) , state its recorded TGI.
Completion: > 625 µM

Prompt: Given O=C(Nc1ccc(OCc2nnc(-c3ccc(Cl)cc3)o2)c(F)c1)Nc1ccc(Cl)c(C(F)(F)F)c1 , state its recorded TGI.
Completion: 4.96 µM

Prompt: Given O=C(O)C12C3CCC(CC3)C1(C(=O)O)C1CCC2C1 (configuration not stated) , state its recorded TGI.
Completion: > 100 µM

Prompt: Given Cc1[nH]c2ccccc2c1C(=O)CC1(O)C(=O)Nc2c(Cl)cc(Cl)cc21 (configuration not stated) , state its recorded TGI.
Completion: > 100 µM

Prompt: Given CCN1CCC(C)OP1(=O)Cc1ccccc1 (configuration not stated) , state its recorded TGI.
Completion: > 100 µM

Prompt: Given NCCSS(=O)(=O)CCN , state its recorded TGI.
Completion: > 100 µM

Prompt: Given O=C1c2ccccc2-c2cc([N+](=O)[O-])c([N+](=O)[O-])cc21 , state its recorded TGI.
Completion: 3.51 µM

Prompt: Given CN(N=O)C(=O)ON1C(=O)CCC1=O , state its recorded TGI.
Completion: > 100 µM

Prompt: Given O=C(Nc1nc2ccc([N+](=O)[O-])cc2s1)C(=O)C(C(=O)c1ccccc1F)C1OC(=O)c2ccccc21 (configuration not stated) , state its recorded TGI.
Completion: > 100 µM

Prompt: Given Cc1ccccc1-n1c(=O)c2ncn(C3CCCO3)c2n(-c2ccccc2C)c1=S (configuration not stated) , state its recorded TGI.
Completion: > 100 µM

Prompt: Given O=C1CCCN1C(=O)CS(=O)(=O)c1ccccc1 , state its recorded TGI.
Completion: > 100 µM

Prompt: Given CCCc1c(-c2ccccc2)[nH]c2ccccc2c1=O , state its recorded TGI.
Completion: 88.2 µM

Prompt: Given CC1CC(C)C(C#N)N(C)c2ccccc21 (configuration not stated) , state its recorded TGI.
Completion: > 100 µM

Prompt: Given O=C1OCC2=C1C(c1ccc(Cl)c(Cl)c1)c1cc3c(cc1N2CCO)OCCO3 (configuration not stated) , state its recorded TGI.
Completion: 7.58 µM

Prompt: Given O=C1OC(=O)C(=C\c2ccc3c(c2)OCO3)/C1=C/c1ccc2c(c1)OCO2 , state its recorded TGI.
Completion: > 100 µM

Prompt: Given NC(N)=NCCCC(NC(=O)c1cccc2c(=O)c3ccccc3[nH]c12)C(=O)O (configuration not stated) , state its recorded TGI.
Completion: > 100 µM

Prompt: Given COc1cc2c3c(n(C)c(=O)c2cc1OC)-c1cc2c(cc1/C3=C\CCCCN1C(=O)c3ccccc3C1=O)OCO2 , state its recorded TGI.
Completion: > 100 µM

Prompt: Given CN1C(=O)N(C)C2C1NN=c1s/c(=C\c3ccc(C(F)(F)F)cc3)c(=O)n12 (configuration not stated) , state its recorded TGI.
Completion: > 100 µM
